# Ki per entry
system-name: human orexin-2 receptor (Homo sapiens (Human))
measurement-notes: Human orexin 2 receptor radioligand binding ([3H]-EMPA competition)
measurement-parameters: HEK293 cells stably expressing human orexin-2 receptor; [3H]-EMPA 5 nM final; apparent Ki=IC50/(1+C/Kd), Kd=2 nM; read-out: OR 2 Ki
All answers are understood in nM, so give the number only.

These recorded examples may help you get a feel for the data.
1. Cc1cc(C)nc(N2CC3CN(C(=O)c4ccccc4-c4cccs4)CC3C2)n1 (centres unmarked) ... 7
2. Cc1cc(C)nc(N2CC3CN(C(=O)c4ccccc4-n4cccn4)CC3C2)n1 (centres unmarked) ... 119

We now examine a further molecule.
Request body: readout Ki, system human orexin-2 receptor (Homo sapiens (Human)), query Cc1cc(N(C)C)nc(N2CC3CN(C(=O)c4ccccc4-n4nccn4)CC3C2)n1 (centres unmarked) . Return the value.
51

====

system-name: human orexin-2 receptor (Homo sapiens (Human), UniProt O43614)
Sequence (O43614 whole entry): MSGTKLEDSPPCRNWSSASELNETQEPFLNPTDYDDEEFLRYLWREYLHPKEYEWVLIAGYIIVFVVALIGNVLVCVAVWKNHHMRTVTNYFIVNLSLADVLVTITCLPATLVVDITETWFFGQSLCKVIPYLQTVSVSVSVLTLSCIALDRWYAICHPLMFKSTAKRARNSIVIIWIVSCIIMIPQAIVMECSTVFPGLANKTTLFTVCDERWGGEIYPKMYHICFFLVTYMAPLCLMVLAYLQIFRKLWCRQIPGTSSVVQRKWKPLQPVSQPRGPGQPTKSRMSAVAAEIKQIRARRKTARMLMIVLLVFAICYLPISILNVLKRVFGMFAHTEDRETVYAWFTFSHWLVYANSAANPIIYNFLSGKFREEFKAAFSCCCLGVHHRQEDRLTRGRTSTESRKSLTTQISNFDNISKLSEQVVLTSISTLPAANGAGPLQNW
measurement-notes: Human orexin 2 receptor radioligand binding ([3H]-EMPA competition)
measurement-parameters: HEK293 cells stably expressing human orexin-2 receptor; [3H]-EMPA 5 nM final; apparent Ki=IC50/(1+C/Kd), Kd=2 nM; read-out: OR 2 Ki
result-type: pKi
Please keep in mind that pKi is minus log10 of the molar concentration; only the number is needed.

These recorded examples may help you get a feel for the data.
1) O=C(c1ccccc1-c1cccs1)N1CC2CN(c3nc4ccc(F)cc4s3)CC2C1 (centres unmarked) [Example 46] ... 6.88
2) Cc1noc(-c2ccccc2C(=O)N2CC3CN(c4nc(C)c(C)c(C)n4)CC3C2)n1 (centres unmarked) [Example 309] ... 8.15
3) Cc1cc(C)nc(N2CC3CN(C(=O)c4cccc(F)c4C)CC3C2)n1 (centres unmarked) [Example 220] ... 6.30
4) Cc1cc(C)nc(N2CC3CN(C(=O)c4cccc(F)c4-c4ccn[nH]4)CC3C2)n1 (centres unmarked) [Example 284] ... 8.10
5) Cc1cc(N2CC3CN(C(=O)c4cc(F)ccc4-c4ncccn4)CC3C2)nc(C(F)(F)F)n1 (centres unmarked) [Example 204] ... 7.30
6) Cc1cc(C)nc(N2CC3CN(C(=O)c4cccc5ccccc45)CC3C2)n1 (centres unmarked) [Example 93] ... 7.19

Request body: readout pKi, system human orexin-2 receptor (Homo sapiens (Human), UniProt O43614), query O=C(c1ccccc1-c1nnc[nH]1)N1CC2CN(c3cnc4ccccc4n3)CC2C1 (centres unmarked) [Example 85] . Return the value.
7.01

How about O=C(c1ccccc1-c1ccc(C(F)(F)F)cc1)N1CC2CN(c3cnc4ccccc4n3)CC2C1 (centres unmarked) [Example 194] ?
5.00

How about O=C(c1ccccc1-c1ccccc1)N1CC2CN(c3nccc(-c4cn[nH]c4)n3)CC2C1 (centres unmarked) [Example 61] ?
6.65

How about Cc1cccc(-c2c(F)cccc2C(=O)N2CC3CN(c4nc(C)cc(C)n4)CC3C2)n1 (centres unmarked) [Example 370] ?
7.08

How about O=C(c1ccccc1-n1nccn1)N1CC2CN(c3nccc(-c4ccco4)n3)CC2C1 (centres unmarked) [Example 151] ?
6.74

====

system-name: human orexin-2 receptor (Homo sapiens (Human), UniProt O43614)
measurement-notes: Human orexin 2 receptor radioligand binding ([3H]-EMPA competition)
measurement-parameters: HEK293 cells stably expressing human orexin-2 receptor; [3H]-EMPA 5 nM final; apparent Ki=IC50/(1+C/Kd), Kd=2 nM; read-out: OR 2 Ki
# Ki per entry

These recorded examples may help you get a feel for the data.
1) Cc1ccnc(N2CC3CN(C(=O)c4ccccc4-c4cccc(F)c4)CC3C2)n1 (stereo not shown) ... 0.716 µM
2) Cc1ccc(C(=O)N2CC3CN(c4nc(C)cc(C)n4)CC3C2)c(C)c1 (stereo not shown) ... 1.47 µM
3) COc1c(C(=O)N2CC3CN(c4nc(C)cc(C)n4)CC3C2)ccc2ccccc12 (stereo not shown) ... 1.52 µM

We now examine a further molecule.
Fill blank: measured Ki of the molecule Cc1noc(-c2ccccc2C(=O)N2CC3CN(c4nc(C)c(Cl)c(C)n4)CC3C2)n1 (stereo not shown) is ____.
0.005 µM
